Every entry's value here was drawn from paper PMC6897945.

Experiment: Cytotoxic activity, MTT method
Type: cell-based
Assay Context: human; Huvec-12 normal cell line; read-out: Cytotoxic activities IC50, Huvec-12

{"Compound": "CC[C@@]1(O)CCc2c(O)c3c(c(O)c2[C@H]1O[C@H]1C[C@H](N(C)C)[C@H](O[C@H]2C[C@H](O)[C@H](O[C@H]4CC[C@H](O)[C@H](C)O4)[C@H](C)O2)[C@H](C)O1)C(=O)c1cccc(O)c1C3=O [Compound 4, cosmomycin B]", "IC50": "410 nM"}
{"Compound": "CC[C@@]1(O)C[C@H](O)c2c(O)c3c(c(O)c2[C@H]1C(=O)OC)C(=O)c1cccc(O)c1C3=O [Compound 10, ε-rhodomycinone]", "IC50": "15300 nM"}
{"Compound": "CC[C@@]1(O)CCc2c(O)c3c(c(O)c2[C@H]1O[C@H]1C[C@H](N(C)C)[C@H](O[C@H]2CC[C@H](O[C@H]4CC[C@H](O)[C@H](C)O4)[C@H](C)O2)[C@H](C)O1)C(=O)c1cccc(O)c1C3=O [Compound 3, cosmomycin A]", "IC50": "310 nM"}
{"Compound": "CC[C@@]1(O[C@H]2C[C@H](N(C)C)[C@H](O)[C@H](C)O2)CCc2c(O)c3c(c(O)c2[C@H]1O[C@H]1C[C@H](N(C)C)[C@H](O[C@H]2C[C@H](O)[C@H](O[C@H]4CC[C@H](O)[C@H](C)O4)[C@H](C)O2)[C@H](C)O1)C(=O)c1cccc(O)c1C3=O [Compound 2, cytorhodin Y]", "IC50": "4710 nM"}
